// provenance: ChEMBL document CHEMBL3612042

Tested on: Mycobacterium tuberculosis
assay_explanation: Antibacterial activity against Mycobacterium tuberculosis H37Rv measured at 10 to 14 days by broth microdilution method
Format: functional
Known MIC90 of a selection of molecules
Lab book: enter the figure in µM, no units written.

1) CCN(CC)CC.Nc1ncnc2c1ncn2[C@@H]1O[C@H](COS(=O)(=O)NC(=O)CCCC[C@@H]2SC[C@@H]3NC(=O)N[C@@H]32)[C@@H](O)[C@@H]1F    50
2) Nc1ncnc2c1ncn2[C@H]1CC[C@@H](CNS(=O)(=O)NC(=O)CCCC[C@@H]2SC[C@@H]3NC(=O)N[C@@H]32)C1    1.56
3) Nc1ncnc2c1ncn2[C@H]1CNC[C@@H](COS(=O)(=O)NC(=O)CCCC[C@@H]2SC[C@@H]3NC(=O)N[C@@H]32)O1    3.12

Now let's try a different one.
# input # returns recorded MIC90 (system: Mycobacterium tuberculosis) for CCN(CC)CC.Nc1ncnc2c1ncn2[C@@H]1O[C@H](CNS(=O)(=O)NC(=O)CCCC[C@@H]2SC[C@@H]3NC(=O)N[C@@H]32)[C@@H](O)[C@H]1F
# output 1.25

* * *

Known pKd of a selection of compounds
measurement_target: Biotin--[acetyl-CoA-carboxylase] ligase (Mycobacterium tuberculosis (strain ATCC 25618 / H37Rv), UniProt I6YFP0)
Sequence (I6YFP0 whole entry): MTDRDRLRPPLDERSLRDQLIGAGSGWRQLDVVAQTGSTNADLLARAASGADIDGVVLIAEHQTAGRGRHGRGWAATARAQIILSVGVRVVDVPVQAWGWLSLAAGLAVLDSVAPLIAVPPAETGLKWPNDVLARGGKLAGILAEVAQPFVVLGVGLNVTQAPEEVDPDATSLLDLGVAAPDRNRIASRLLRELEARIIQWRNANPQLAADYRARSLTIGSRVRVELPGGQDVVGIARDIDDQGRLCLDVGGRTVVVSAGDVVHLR
pKd (log units): -log10 of the concentration in mol/L.

Examples with their reported pKd follow.
1) C[C@@]1(O)[C@H](O)[C@@H](COS(=O)(=O)NC(=O)CCCC[C@@H]2SC[C@@H]3NC(=O)N[C@@H]32)O[C@H]1n1cnc2c(N)ncnc21    9.11
2) Nc1ncnc2c1ncn2[C@H]1CC[C@@H](CNS(=O)(=O)NC(=O)CCCC[C@@H]2SC[C@@H]3NC(=O)N[C@@H]32)C1    9.27
3) CCN(CC)CC.Nc1ncnc2c1ncn2[C@@H]1O[C@H](CNS(=O)(=O)NC(=O)CCCC[C@@H]2SC[C@@H]3NC(=O)N[C@@H]32)[C@@H](O)[C@H]1F    9.21
4) CCN(CC)CC.Nc1ncnc2c1ncn2[C@@H]1O[C@H](COS(=O)(=O)NC(=O)CCCC[C@@H]2SC[C@@H]3NC(=O)N[C@@H]32)[C@@H](O)[C@@H]1F    9.82
5) Nc1ncnc2c1ncn2[C@@H]1O[C@H](CNS(=O)(=O)NC(=O)CCCC[C@@H]2SC[C@@H]3NC(=O)N[C@@H]32)C[C@H]1O    9.23
6) Nc1ncnc2c1ncn2[C@@H]1O[C@H](CNS(=O)(=O)NC(=O)CCCC[C@@H]2SC[C@@H]3NC(=O)N[C@@H]32)[C@@H](O)[C@H]1N    9.20

Now let's try a different one.
# input I would be grateful if you could share the reported pKd for Nc1ncnc2c1ncn2[C@H]1CNC[C@@H](COS(=O)(=O)NC(=O)CCCC[C@@H]2SC[C@@H]3NC(=O)N[C@@H]32)O1 .
# output 9.49

* * *

System: Mycobacterium tuberculosis
assay_explanation: Antibacterial activity against Mycobacterium tuberculosis H37Rv measured at 10 to 14 days by broth microdilution method
Type: functional
outcome_measure: MIC90

Examples with their reported MIC90 follow.
1. Nc1ncnc2c1ncn2[C@@H]1C[C@H](CNS(=O)(=O)NC(=O)CCCC[C@@H]2SC[C@@H]3NC(=O)N[C@@H]32)[C@@H](O)[C@H]1O    > 100 µM
2. Nc1ncnc2c1ncn2[C@H]1C=C[C@@H](CNS(=O)(=O)NC(=O)CCCC[C@@H]2SC[C@@H]3NC(=O)N[C@@H]32)C1    3.12 µM
3. Nc1ncnc2c1ncn2[C@@H]1O[C@H](CNS(=O)(=O)NC(=O)CCCC[C@@H]2SC[C@@H]3NC(=O)N[C@@H]32)[C@@H](O)[C@H]1N    1.25 µM
4. [N-]=[N+]=N[C@@H]1[C@H](O)[C@@H](CNS(=O)(=O)NC(=O)CCCC[C@@H]2SC[C@@H]3NC(=O)N[C@@H]32)O[C@H]1n1cnc2c(N)ncnc21    3.12 µM
5. Nc1ncnc2c1ncn2[C@@H]1O[C@H](CNS(=O)(=O)NC(=O)CCCC[C@@H]2SC[C@@H]3NC(=O)N[C@@H]32)C[C@H]1O    0.78 µM

Now let's try a different one.
# input I would be grateful if you could share the reported MIC90 for C[C@@]1(O)[C@H](O)[C@@H](COS(=O)(=O)NC(=O)CCCC[C@@H]2SC[C@@H]3NC(=O)N[C@@H]32)O[C@H]1n1cnc2c(N)ncnc21 .
# output 50 µM
